# ASSAYED_TARGET: IRAK4 (Homo sapiens, UniProt Q9NWZ3)
# Construct: Degradation of IRAK4 in OCI-LY10 was quantitatively measured using Meso Scale Discovery technology; endogenous in cells; host or cells: OCI-LY10
# Sequence (Q9NWZ3 1-460): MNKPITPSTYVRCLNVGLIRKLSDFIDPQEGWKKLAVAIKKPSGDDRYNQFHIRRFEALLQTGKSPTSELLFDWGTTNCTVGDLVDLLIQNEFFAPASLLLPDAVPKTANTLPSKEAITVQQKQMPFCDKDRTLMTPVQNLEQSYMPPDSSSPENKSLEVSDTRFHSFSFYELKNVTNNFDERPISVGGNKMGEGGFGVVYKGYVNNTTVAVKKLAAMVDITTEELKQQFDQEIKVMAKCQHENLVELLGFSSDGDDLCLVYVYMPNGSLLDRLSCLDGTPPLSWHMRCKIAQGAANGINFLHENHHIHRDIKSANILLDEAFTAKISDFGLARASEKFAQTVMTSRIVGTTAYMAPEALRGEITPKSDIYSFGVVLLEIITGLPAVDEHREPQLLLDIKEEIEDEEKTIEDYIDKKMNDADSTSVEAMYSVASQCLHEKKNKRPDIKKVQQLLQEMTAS
# TEST_PROTOCOL: IRAK4 MSD Degradation in OCI-LY10
# Type: cell-based
# RUN_CONDITIONS: OCI-LY10 cells, 4 hrs incubation, MSD; read-out: IRAK4 degradation in OCI-LY10 at 4 hrs: DC50
# Description: Degradation of IRAK4 in OCI-LY10 was quantitatively measured using Meso Scale Discovery technology. […] Compounds were then added to the assay plates with a final top concentration of 1 to 10 μM in a 1:3 dilution series with total of 8 doses. […] The assay plates were then incubated at room temperature for 1 hour, washed 3 times with 150 μL/well TBST buffer, and 150 μL/well MSD reading buffer (Meso Scale Discovery catalog number R92TC-2) was added. […]
Measured DC50, listed per entry.
OBSERVED_PROPERTY: DC50

INSERT INTO assay_data (compound, meas_value) VALUES
  ('CN(C[C@H]1CC[C@H](n2cc(NC(=O)c3cnn4ccc(N5CCCOCC5)nc34)c(C(F)F)n2)CC1)C1CCN(c2cccc3c2n(C)c(=O)n3C2CCC(=O)NC2=O)CC1(F)F (stereo partly drawn) [I-544]', '> 200 nM'),
  ('COc1cc2nn([C@H]3CC[C@H](CN4CCC5(CC4)CCN(c4cccc6c4n(C)c(=O)n6C4CCC(=O)NC4=O)CC5)CC3)cc2cc1NC(=O)c1cncc(C)c1 (stereo partly drawn) [I-89]', '> 200 nM'),
  ('Cn1c(=O)n(C2CCC(=O)NC2=O)c2cccc(C#CCN3CCN(C[C@H]4CC[C@H](n5cc(NC(=O)c6cnn7ccc(C8COCCN8)nc67)c(C(F)F)n5)CC4)CC3)c21 (stereo partly drawn) [I-301]', '> 200 nM');

Where do the numbers come from? From patent US12091411B2.
